system: DU145 cells; assay: Clonogenic survival (colony formation) assay; format: cell-based, human; settings: DU145 DUB3 OE BRD4 KD; JQ1 for 3 days, harvested at day 10
Quantity measured: IC50 (nM)
Please give a number only; it is taken to be in nM.

Consider the molecule Cc1sc2c(c1C)C(c1ccc(Cl)cc1)=N[C@@H](CC(=O)OC(C)(C)C)c1nnc(C)n1-2 [JQ1] and give its recorded IC50.
297

Numbers sourced from patent US12290521B2.
